# System: E. coli TESEC Mtb Alr
# method-notes: growth (OD600 after 10 h); higher = more growth (less inhibition)
# condition-summary: arabinose 10000000 nM; compound 0.1 mM; raw OD600 reference: median of DMSO wells […], cell-free background 0.052
measured-property: growth

Incoming: Reported growth, compound CC1(C)O[C@@H]2C[C@H]3[C@@H]4C[C@H](F)C5=CC(=O)CC[C@]5(C)[C@H]4[C@@H](O)C[C@]3(C)[C@]2(C(=O)CO)O1 [Flurandrenolide] : ____
Outgoing: 0.338

Incoming: Reported growth, compound N=C(N)N/N=C/c1c(Cl)cccc1Cl [Guanabenz acetate] : ____
Outgoing: 0.318

Incoming: Reported growth, compound CN[C@@H]1[C@@H](O[C@H]2O[C@H](CO)[C@@H](N)[C@H](O)[C@H]2O)OC2C[C@@H](N)[C@@H](O[C@H]3[C@H](O)[C@@H](O)[C@H](N)C[C@@H]3N)OC2[C@@H]1O (some centres undefined) : ____
Outgoing: 0.133

Incoming: Reported growth, compound NC(=O)N1c2ccccc2CC(=O)c2ccccc21 [Oxcarbazepine] : ____
Outgoing: 0.321

----------
# Tested on: E. coli TESEC Mtb DapB
# method-notes: growth (OD600 after 10 h); higher = more growth (less inhibition)
# condition-summary: arabinose induction (level): Low; compound 0.1 mM; raw OD600 reference: median of DMSO wells 0.227, cell-free background 0.041
Counter-ions that a name gives are not always drawn.
measured-property: growth
Kindly provide the number alone.

Incoming: Reported growth, molecule O=C(CCCN1CCN(c2ccccn2)CC1)c1ccc(F)cc1 [Azaperone] : ____
Outgoing: 0.264

Incoming: Reported growth, molecule C(=C\c1ccccc1)/CN1CCN(C(c2ccccc2)c2ccccc2)CC1 [Cinnarizine] : ____
Outgoing: 0.223

Incoming: Reported growth, molecule CCc1c2c(nc3ccc(OC(=O)N4CCC(N5CCCCC5)CC4)cc13)-c1cc3c(c(=O)n1C2)COC(=O)[C@]3(O)CC [Irinotecan hydrochloride trihydrate] : ____
Outgoing: 0.243

Incoming: Reported growth, molecule O=C(Nc1ccccc1)OCC(CN1CCCCC1)OC(=O)Nc1ccccc1 (centres undefined) [Diperodon hydrochloride] : ____
Outgoing: 0.223

----------
Hi there, I'd appreciate the recorded growth for every entry that follows.
# Tested on: E. coli TESEC Mtb DapB
# method-notes: growth (OD600 after 10 h); higher = more growth (less inhibition)
# condition-summary: arabinose induction (level): Low; compound 0.1 mM; raw OD600 reference: median of DMSO wells 0.227, cell-free background 0.041
Kindly provide the number alone.

Incoming: Reported growth, compound C[C@H]1NC(=O)NC1=O [Methylhydantoin-5-(D)] : ____
Outgoing: 0.244

Incoming: Reported growth, compound N[C@@H](C(=O)N[C@@H]1C(=O)N2C(C(=O)O)=C(Cl)CS[C@H]12)c1ccccc1 [Cefaclor hydrate] : ____
Outgoing: 0.247

Incoming: Reported growth, compound Cc1cnc(C(=O)O)c[n+]1[O-] [Acipimox] : ____
Outgoing: 0.217

Incoming: Reported growth, compound COc1c(O[C@@H]2O[C@H](CO)[C@@H](O)[C@H](O)[C@H]2O)cc2c(c1OC)-c1ccc(SC)c(=O)cc1[C@@H](NC(C)=O)CC2 [Thiocolchicoside] : ____
Outgoing: 0.236
